biological target: human CD28 (human, UniProt P10747 19-220); experiment: cell-based or functional assay
measured_endpoint: MLR assay (EC50)

binder	result_value
1h-239-829 (other) VL: DIQMTQSPSSLSASVGDRVTITCRASQSIYPFLEWYQQKPGKAPKLLIYFSSRLASGVPSRFSGSGSGTDFTLTISSLQPEDFATYYCLQNVTNPATFSQGTKVEIKR	11 nM
1h-99-250 (other) VH: EVQLLESGGGLVQPGGSLRLSCAASGFTFDSANMSWARQAPGKGLEWVSWIEATGGQTFYADSVKGRFTISRDNSKNTLYLQMNSLRAEDTAVYYCAKSPFGPLYGFDYRGQGTLVTVSS	8 nM
1h-36-6 (other) VL: DIQMTQSPSSLSASVGDRVTITCRASRDIALDLLWYQLKPGKAPKLLIKGWSGLQSGVPSRFSGSGSGTDFTLTISSLQPEDFATYFCAQGWGRPVTFGQGTKVEIKR	260 nM
1h-99-270 (other) VH: EVQLLESGGGLVQPGGSLRLSCAASGFTFYKANMSWARQAPGKGLEWVSWIEASGVQTFYADSVKGRFTISRDNSKNTLYLQMNSLRAEDTAVYYCAKSPFGPLYGFDYRGQGTLVTVSS	6 nM
